Test system: K4 kissing-loop RNA reporter;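 further: bound reporter read as fluorescence of individual clusters on recovered sequencing chips by microscopy, with normalized cluster intensities fitted with a binding model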
Experiment: apparent KD of K4 kissing-loop reporter; higher = weaker reporter binding
Settings: Eterna round: R107; input ligand: none
The entries below are paired with their reported apparent KD of K4 kissing-loop reporter.
Response body: numeric value in nM, unit text excluded.

Examples with their reported apparent KD of K4 kissing-loop reporter follow.
Tell me the measured apparent KD of K4 kissing-loop reporter of CGCAGGAUGGAAGGAUAUGGGAGUUGACGUCGCCGAGCUAACCUUCUGCACGGAGUGAUGUUUAGACCAGAAGGUCCUCGGAGCA [theeternabot_exclusion_KL_FMN_B_17] , please.
1610

# apparent KD of K4 kissing-loop reporter lookup, item AAAUUUAUAUUAGAUACCAGCAUUUUGAAUGUUUAUUAUGACAAGAGUGAUGUUCUUGUAUGCCCUUGGCAGCUGGUAUGGGUUU [KL-XTheo-B24]
136

Now examine the next entry.
Returns the measured apparent KD of K4 kissing-loop reporter for the input sequence. Input: ACGGGUCGACGAAGGAGCGCCGUGCAGUGAUGUUGCAGUUAGAUCCAGUGAUGUUUGGGCCGGCAGGUAGGUCGCGUCGACUCAU [Exclusion Arginine B GF 21]
278
